Tested on: OVCAR-5 ovarian
assayExplanation: NCI tumour cell line growth inhibition, 48 h
Items are presented alongside their recorded TGI.

Oc1cccc(C2SCc3nc4ccccc4n32)c1 (centres undefined) = > 100 µM
CC(=O)Nc1ccc(/C=c2\sc3nnc(/C=C/c4ccccc4)n3c2=O)cc1 = > 50 µM

Exam item: # lookup: TGI of COc1cc(OC)c(/C=N/N=C(\N)NO)c(OC)c1
Marked response: > 100 µM

Exam item: Look at this molecule and give its reported TGI. Cc1cccc(C)c1NC(=S)/N=C/C1=C(O)c2ccccc2C1=O
Marked response: > 100 µM

Exam item: What does the record list as TGI for CCOC(=O)Cn1nc2ccc(Nc3nc4ccccc4nc3C(=O)OCC)cc2n1 ?
Marked response: > 100 µM

Exam item: Which TGI reading was recorded for the molecule CC(=O)OCCn1c(Cc2ccc([N+](=O)[O-])cc2)nn(C(C)=O)c1=O ?
Marked response: > 100 µM

Exam item: Recorded TGI of COc1cc(/C=C2\NC(=O)N(/C=C3\C(=O)Oc4ccccc4C3=O)C2=O)ccc1O , please.
Marked response: > 100 µM

Exam item: Name the recorded TGI for Cn1cc(-c2ccc(CCOC3CCCCO3)cc2)c2c(C#N)cccc21 (centres undefined) .
Marked response: > 100 µM

Exam item: May I ask what TGI has been recorded for CC(=O)OC1CC(OC2C(O)CC(OC3C(O)CC(OC4CCC5(C)C(CCC6C5CC(O)C5(C)C(C7=CC(=O)OC7)CCC65O)C4)OC3C)OC2C)OC(C)C1O (centres undefined) (tested in a mixture with another compound) ?
Marked response: 0.12 µM

---

Test system: HT29 colon
assayExplanation: NCI tumour cell line growth inhibition, 48 h
quantity: TGI

Consider the reported TGI for these compounds:
Cc1cc(N2CCN(C)CC2)nc(NC2CCCC(Nc3ccnc4cc(Cl)ccc34)C2)n1 (stereo unspecified) = 6.16 µM
N#Cc1c(NC(=O)CCC(=O)O)ccc2ccccc12 = > 100 µM
CCNC1CC(C(C)(C)NCC)CC=C1C (stereo unspecified) = > 100 µM

Exam item: # get_value(readout= TGI, system= HT29 colon) for Cc1cc2c3c(ccc4ncc(c43)CN2c2ccc(NS(C)(=O)=O)cc2)[nH]1
Marked response: > 100 µM

Exam item: Test system HT29 colon; read-out TGI; what value for Fc1cccc(F)c1C1SCc2nc3ccccc3n21 (stereo unspecified) ?
Marked response: > 100 µM

Exam item: Entry CC(=O)N1c2ccccc2C23CCN4CC5=CCOC(O)C(C5CC42)C13 (stereo unspecified) , system HT29 colon: what TGI was measured?
Marked response: > 100 µM

---

Test system: RPMI-8226 leukemia
assayExplanation: NCI tumour cell line growth inhibition, 48 h
Recorded TGI values for a group of compounds are listed next.
Field: numeric (µM). Do not append units.

Use these answered entries as a reference point.
CC1C(c2ccccc2O)c2cc3c(cc2OC1N1CCCC1)OCO3 (stereo unspecified) = 57.5
O=C1Nc2ccccc2SC1C1SC(=S)N(Cc2ccccc2)C1=O (stereo unspecified) = 7.39
C=C1C(=O)C=C2C=C3C(=O)C(C)(C)C[C@]3(O)C12C (stereo partly specified) = 3.2

Next compound, TGI to be filled in.
Exam item: Which value of TGI has been reported for COc1ccc(OC)c(CCc2cc(OC)c(OC)cc2C)c1 in the records?
Marked response: 90.1

---

Reported TGI values are given for each entry in this list.
Test system: KM20L2 colon
assayExplanation: NCI tumour cell line growth inhibition, 48 h

Exam item: Report TGI for CC1=NN(C(=O)c2ccc(Cl)cc2)C(=O)/C1=C/c1cccc(O)c1 tested on KM20L2 colon.
Marked response: > 100 µM

---

A collection of compounds and their measured TGI
System: ACHN renal
assayExplanation: NCI tumour cell line growth inhibition, 48 h

These recorded examples may help you get a feel for the data.
N#Cc1cccc(Nc2nccc(-c3cnn4ncccc34)n2)c1 = > 25 µM
CC(C)OCN1COCN=C1NC#N = > 100 µM
O=C1OC(=O)C2C3CCC(O3)C12 (configuration not stated) = > 100 µM
OC[C@H]1CC(c2nn[nH]n2)[C@H](O)[C@@H]1O (some centres not stated) = > 100 µM
O=C1C=C(Br)C(=O)C(Br)=C1 = > 100 µM

Exam item: Quick check: TGI of CC1=CCC2(C#N)CCC1C2=O (configuration not stated) ?
Marked response: > 100 µM

Exam item: Give the measured TGI of O=C1c2c(Br)sc(Br)c2[C@H]2NC(=S)O[C@@H]12 .
Marked response: 31.6 µM

---

Overview of reported TGI across a group of molecules:
System: HOP-92 NSCLC
assayExplanation: NCI tumour cell line growth inhibition, 48 h

Solved cases below.
C/C=C/C=C/[C@H]1Cc2cc(O)cc(O)c2O1 = > 100 µM
CS(=O)(=O)C(=Cc1ccccc1Cl)S(C)(=O)=O = > 100 µM
COc1cc2cc(C(=O)N3CC(COS(C)(=O)=O)c4c3cc([N+](=O)[O-])c3ccccc43)[nH]c2c(OC)c1OC (stereo not given) = > 31.6 µM

Exam item: Record O=C(Nc1cc(C(F)(F)F)ccc1Cl)C(=O)C(C(=O)c1ccc2ccccc2c1)C1OC(=O)c2ccccc21 (stereo not given) : what is its TGI with HOP-92 NSCLC?
Marked response: 28.1 µM

Exam item: Record lookup: for HOP-92 NSCLC, what TGI belongs to O=C(O)[C@@H]1C[C@@H](O)CN1 ?
Marked response: > 100 µM

---

System: OVCAR-8 ovarian
assayExplanation: NCI tumour cell line growth inhibition, 48 h
quantity: GI50

Illustrative cases are given below, each with its answer.
O=C1c2cccc3c(N4CCN(c5ccc6c7c(cccc57)C(=O)N(CCN5CCNCC5)C6=O)CC4)ccc(c23)C(=O)N1CCN1CCNCC1 = 10.9 µM
COc1ccc2[nH]cc(/C=C3\C(=O)Nc4ccccc43)c2c1 = 7.02 µM
Clc1ccc2c(NCCNc3nc(-c4ccccc4)cc(-c4ccccc4)n3)ccnc2c1 = 2.07 µM
O=C(Nc1ccc(-n2cc(-c3ccncc3)c(-c3ccc(Cl)c(O)c3)n2)cc1)c1cc(Cl)cc(Cl)c1 = 14.4 µM

Next:
Exam item: Looking for the measured GI50 of O=[N+]([O-])c1ccc2nc(N/N=C/c3ccc(O)cc3)sc2c1 , can you help?
Marked response: 3.75 µM

---

Test system: A549 NSCLC
assayExplanation: NCI tumour cell line growth inhibition, 48 h
quantity: TGI

c1ccc(-c2cc(-c3cc(-c4ccccn4)[nH]n3)n[nH]2)nc1 = > 100 µM
Cc1ccnc2c1NC(=O)c1cccnc1N2C1CC1 = > 100 µM
O=[N+]([O-])c1ccc2nc(N/N=C/c3ccc(O)cc3)sc2c1 = 29.4 µM
O=C(c1nsc(Cl)c1Cl)N1CCCCC1 = > 100 µM
C[C@]12CC[C@@H]3c4ccc(O)cc4CC[C@H]3[C@@H]1CC[C@@H]2NS(=O)(=O)c1cccc(Br)c1 = 13.1 µM

Exam item: Entry Nc1ccc(-c2ccc(-c3nc4ccccc4[nH]3)cc2)cc1 : reported TGI = ?
Marked response: > 95.5 µM

---

System: MCF7 breast
assayExplanation: NCI tumour cell line growth inhibition, 48 h
quantity: TGI

Reference set, count: 3
OC[C@H]1CC(c2nn[nH]n2)[C@H](O)[C@@H]1O (stereo not given in full) = > 100 µM
Nc1cc(C(F)F)c(-c2nc(N3[C@@H]4CC[C@H]3COC4)nc(N3[C@@H]4CC[C@H]3COC4)n2)cn1 = > 100 µM
C=CC(=O)Nc1cc2c(Nc3ccc(OCc4ccccn4)c(Cl)c3)ncnc2cc1OCCN1CCOCC1 = > 100 µM

Exam item: TGI lookup needed for COC(=O)c1ccccc1CC1Cc2cc3c(cc2C1)CCC3 , thanks.
Marked response: > 100 µM

Exam item: What measured TGI goes with Cc1ccc(S(=O)(=O)C2=c3ncccc3=C3C(=O)c4ccccc4C(=O)C32)cc1 (stereo not given) ?
Marked response: > 100 µM

Exam item: I have this compound here, O=C(c1cccs1)c1c(C(F)(F)F)n([O-])c2cc(F)c(F)cc2[n+]1=O , and I need its recorded TGI.
Marked response: 15.4 µM

Exam item: Which TGI reading was recorded for the compound O=[N+]([O-])c1ccc(N(CCO)CCO)c2c1no[n+]2[O-] ?
Marked response: 10.2 µM

Exam item: Tell me the measured TGI of CCNC1CC(C(C)(C)NCC)CC=C1C (stereo not given) , please.
Marked response: > 100 µM

Exam item: Item under review: C=C1CC2(OC1=O)c1ccccc1CCc1ccccc12 . Reported TGI?
Marked response: 16.2 µM

Exam item: Data request, read-out TGI, for c1ccc(-c2cc(-c3cc(-c4ccccn4)[nH]n3)n[nH]2)nc1
Marked response: > 100 µM

---

Test system: ACHN renal
assayExplanation: NCI tumour cell line growth inhibition, 48 h; in the data active = GI50 below about 0.43 µM; inactive = the rest
Output constraint: value belongs to active, inactive

CCN(C)S(=O)(=O)Nc1cccc(Nc2ncnc3cc(NC(=O)CCl)ccc23)c1Cl = inactive
COC(=O)c1c2c(c(C)[n+]([O-])c1C)C(=O)C(NCc1ccc(F)c(Cl)c1)=CC2=O = inactive
Cc1cc(N2CCN(C)CC2)nc(NC2CCCC(Nc3ccnc4cc(Cl)ccc34)C2)n1 (stereo not given) = inactive
CN(C)CCCC1(c2ccc(F)cc2)OCc2cc(-c3ccc4cc[nH]c4c3)ccc21 (stereo not given) = inactive
COc1cc(/C=C2\C(=O)N(c3c(Cl)cccc3Cl)c3ccccc32)cc(OC)c1O = inactive
N#CC1=C(N)Oc2c(sc3c(F)cccc23)C1c1ccc([N+](=O)[O-])cc1 (stereo not given) = active
O=C1Nc2ccccc2SC1C1SC(=S)N(Cc2ccccc2)C1=O (stereo not given) = inactive
COc1ccc2cc(C(=O)/C=C/c3ccc(OC)c(OC)c3)ccc2c1 = inactive

Exam item: What did the test return for Clc1ccc2c(NCCNc3nc(-c4ccccc4)cc(-c4ccccc4)n3)ccnc2c1 ?
Marked response: inactive

Exam item: Check the results log: what was the call for O=C(Nc1ccc(-n2cc(-c3ccncc3)c(-c3ccc(Cl)c(O)c3)n2)cc1)c1cc(Cl)cc(Cl)c1 ?
Marked response: inactive
